species on record: Rattus norvegicus; experiment: DrugMatrix - Regimen: Daily Repeat; assay type: toxicity, organism-based, Sprague-Dawley; design: regimen Daily Repeat, gender Male, age 6-8 weeks; settings: in vivo, po, 0 mg/kg, 72 h, tissue Plasma, route oral GAVAGE, dose level Control, time 3 day, vehicle .5 % CMC
Reported Property: ALANINE AMINOTRANSFERASE (u/L)
Numeric only. Scale: u/L

The following compounds have reported results that may help.
ClC(Br)Br ... 55.67
OCCN(CCO)c1nc(N2CCCCC2)c2nc(N(CCO)CCO)nc(N3CCCCC3)c2n1 ... 36.5
NC1=NC(=O)C(c2ccccc2)O1 (centres undefined) ... 38.83
COc1nc(C)nc(Cl)c1N=C1NCCN1 ... 47.67
CC1CC(OC(=O)C(O)c2ccccc2)CC(C)(C)C1 (centres undefined) [CYCLANDELATE] ... 36.5

Prompt line: Check the records and state ALANINE AMINOTRANSFERASE for `O=C(CCCN1CC=C(n2c(=O)[nH]c3ccccc32)CC1)c1ccc(F)cc1`
Response line: 41

Prompt line: For the compound `Cc1ccc2cc3c(ccc4ccccc43)c3c2c1CC3` , report ALANINE AMINOTRANSFERASE.
Response line: 44.5

Prompt line: Complete the entry with ALANINE AMINOTRANSFERASE for C1CCC(C(CC2CCCCN2)C2CCCCC2)CC1 (centres undefined)
Response line: 42.83

Prompt line: Complete the entry with ALANINE AMINOTRANSFERASE for `CCOP(=S)(OCC)Oc1nc(Cl)c(Cl)cc1Cl`
Response line: 43
